test system: MCF7; assay: Cytotoxicity against human MCF7 cells assessed as cellular growth at 10 uM by SRB assay; format: functional
Please use MET whenever Activity is not below 90%, and NOT MET whenever it is.

Take a look at these entries with their results.
* Cc1ccc(S(=O)(=O)Oc2ccc(-c3cnc4ccccc4n3)cc2)cc1 | MET
* Cc1cc(C)c(NC(=O)c2sc3nc4c(cc3c2N)C(=O)CCC4)c(C)c1 | NOT MET
* Cc1ccc(C2=N/C(=C\c3ccccc3)C(=O)O2)cc1 | MET

In: I'd appreciate it if you could say whether `O=C(NCc1cccnc1)c1sc2cc([N+](=O)[O-])ccc2c1Cl` has Activity at least equal to 90%.
Out: MET

In: I'd appreciate it if you could say whether `O=C(Nc1ccc(S(=O)(=O)Nc2nccs2)cc1)c1cccs1` has Activity at least equal to 90%.
Out: MET

Data provenance is ChEMBL document CHEMBL2202954.
